- System: Vero E6
- measurement notes: cell viability relative to DMSO; higher = less toxic
- condition description: 72 h; 1000 nM
Structures can show the parent of a compound that is named as a salt.
property measured: cell viability (%)
Field format: number, assumed %, no unit text.

Any idea what its cell viability is? The compound is C=Cc1cc(O)cc2nc(-c3ccc(O)c(F)c3)oc12 [prinaberel]
100

Again, but for NCCC(Oc1ccc(C(F)(F)F)cc1)c1ccccc1 (stereo not drawn) [norfluoxetine]
95.7

Now this one: O=c1[nH]cc(F)c(=O)[nH]1 [5-fluorouracil]
95.8

How about this compound: CC1=C(/C=C/C(C)=C/C=C/C(C)=C/C=C/C=C(C)/C=C/C=C(C)/C=C/C2=C(C)CCCC2(C)C)C(C)(C)CCC1 [beta-carotene]
104

What about this compound? CC(=O)Oc1cc(C(F)(F)F)ccc1C(=O)O [triflusal]
100

Another compound to check: Cc1cc2nc3c(=O)[nH]c(=O)nc-3n(C)c2cc1C=O [Ro-08-2750]
92.5

One more compound: O=C(Nc1cccc(Nc2ncc(Br)c(NCCc3cnc[nH]3)n2)c1)N1CCCC1 [BX-912]
95.8

Next entry: c1cc(-c2cnn3cc(-c4ccc(OCCN5CCCCC5)cc4)cnc23)ccn1 [dorsomorphin]
96.8

Next entry: COc1cccc(C2(O)CCCCC2CN(C)C)c1 (stereo not drawn) [TRAMADOL HYDROCHLORIDE]
97.4

Check C[C@]12COC(=O)C[C@@H]1CC[C@@H]1[C@@H]2CC[C@@]2(C)[C@H]1CC[C@]2(C)O [Oxandrolone] too.
104

Now this one: O=C(c1ccc(Nc2nccc(-c3cc4ccccc4s3)n2)cc1)N1CCC(N2CCCC2)CC1 [IKK-16]
97.6

Try this compound too: `CON(C)C(=O)[C@H](O)[C@H](Cc1ccccc1)NC(=O)c1cc2cc(Cl)ccc2[nH]1`
94.2

Proceed to `CNC(=O)c1nn(C)c2c1C(C)(C)Cc1cnc(Nc3ccc(N4CCN(C)CC4)cc3)nc1-2`
31.2

Also, C=CC1=C(C)C2=CC3=NC(=C(CC(=O)O)C4=NC(=C(C)C4=C(O)O)C=c4[nH]c(c(C)c4CC)=CC1=N2)C(CCC(=O)O)C3C (stereo not drawn) [chlorophyllin] please.
96.9

Repeat for the following compound: CNCC(O)c1ccc(O)c(O)c1 (racemic) [DL-Adrenaline]
93.8

Would you kindly repeat that for `O=C(NCCN1CCC2(CC1)C(=O)NCN2c1cccc(F)c1)c1ccc2ccccc2c1` ?
96.4

Same read-out for CC1CCN(C(c2ccc(F)cc2)c2ccc(C(C)C(=O)O)cc2-c2ccc(C(F)(F)F)cc2)CC1 (stereo not drawn) [TC-E-5006] ?
99.2

Moving on to the next compound: Clc1ccc2c(c1)N=C(N1CCNCC1)c1ccccc1N2 [desmethylclozapine]
102

----------
- System: Vero E6
- measurement notes: cell viability relative to DMSO; higher = less toxic
- condition description: 72 h; 10000 nM
property measured: cell viability (%)
Give the value in % but do not write % after it.

Which cell viability is listed for `NC(=S)N/N=C/c1ncccc1N` ?
50.3

Also CC(N)CCCC(C)(C)O (configuration not stated) , if possible.
104

Quick one: O=C(/C=C/c1ccc2c(c1)OCO2)N1CCCCC1 [ilepcimide]
97.7

Item: N=C(N)c1ccc(/C=C/c2ccc(C(=N)N)cc2O)cc1 [hydroxystilbamidine]
89.4

Please give the result for CCn1cc(C(=O)O)c(=O)c2cc(F)c(N3CCNC(C)C3)c(F)c21 (configuration not stated) too.
95.3

Param item: `CC(C)(C)C[C@@H]1N[C@@H](C(=O)N[C@H]2CC[C@H](O)CC2)[C@H](c2cccc(Cl)c2F)[C@]12C(=O)Nc1cc(Cl)ccc12`
49.3

Query CC1(C)NC(=O)N(c2ccc([N+](=O)[O-])c(C(F)(F)F)c2)C1=O [nilutamide] next
96.8

// repeat for `CS(=O)(=O)CCNCc1ccc(-c2ccc3ncnc(Nc4ccc(OCc5cccc(F)c5)c(Cl)c4)c3c2)o1` and report
51.5

Another compound: `O=C(NCCN1CCC2(CC1)C(=O)NCN2c1cccc(F)c1)c1ccc2ccccc2c1`
84.8

Proceed to `COc1ccc2[nH]c([S@@+]([O-])Cc3ncc(C)c(OC)c3C)nc2c1`
107

How about `CCN(CC)CC(=O)Nc1c(C)cccc1C` ?
97.9

// next record `C[C@@]12CCc3occc3[C@H]1CC[C@@]13C[C@@H](CC[C@H]12)[C@@](O)(CO)C3`
104

What would you report for `CCCCCCC[N+](CC)(CC)CCCCc1ccc(Cl)cc1` ?
116

Further, for `O=C(c1ccc(OCCCc2c[nH]cn2)cc1)C1CC1` ?
94.2

Ok, now `COC(=O)CN1CN(c2ccccc2)C2(CCN(Cc3cccc4ccccc34)CC2)C1=O`
103

Note, next up: `O=C1S/C(=C\c2ccc(OCc3cccc(B(O)O)c3)cc2)C(=O)N1Cc1ccc(F)cc1`
93.4

How about `Cc1ncc(CO)c(C=O)c1O` ?
102

Try `O=C(OC(C(F)(F)F)C(F)(F)F)N1CCC(C(O)(c2ccc3c(c2)OCO3)c2ccc3c(c2)OCO3)CC1` next.
91.7

Also Cc1cc2nc3c(=O)[nH]c(=O)nc-3n(C[C@H](O)[C@H](O)[C@H](O)COP(=O)(O)O)c2cc1C [riboflavin-5-phosphate-sodium] , if possible.
97.2

Again, but for `C(=C\c1ccccc1)/CN1CCN(CCOC(c2ccccc2)c2ccccc2)CC1`
91.6

Again, but for `C/C(=C(\CCOP(=O)(O)O)SC(=O)c1ccccc1)N(C=O)Cc1cnc(C)nc1N`
96.2

Let us now turn to `Cc1ccc(C(=O)Nc2ccc(Oc3cc4cnn(C)c4cc3-c3cn[nH]c3)c(F)c2)c(=O)n1-c1ccc(F)cc1`
68.1

Please do the same for `O=C(Nc1cccc(Nc2ncc(Br)c(NCCc3cnc[nH]3)n2)c1)N1CCCC1` as well.
91.5

Also check `O=C(c1ccc(Nc2nccc(-c3cc4ccccc4s3)n2)cc1)N1CCC(N2CCCC2)CC1`
-0.2

Another compound to look at: CNCC(O)c1ccc(O)c(O)c1 (racemic)
104

What do we get for `C=C1CC[C@@]2(O)[C@H]3Cc4ccc(O)c5c4[C@@]2(CCN3CC2CC2)[C@H]1O5` ?
107

Moving on to `N[C@@H]1CONC1=O`
103

Param item: N=C(N)NCCCC[C@@H]1NC(=O)CCSSC[C@@H](C(N)=O)NC(=O)[C@@H]2CCCN2C(=O)[C@H](Cc2c[nH]c3ccccc23)NC(=O)[C@H](CC(=O)O)NC(=O)CNC1=O [eptifibatide]
83.3

Another compound: `CCCCNNC(=O)c1ccc(Br)cc1`
69.6

Try this compound too: `CN[C@@H](C)C(=O)N[C@H](C(=O)N1CCC[C@H]1C(=O)N[C@H]1c2ccccc2C[C@H]1OCC#CC#CCO[C@@H]1Cc2ccccc2[C@@H]1NC(=O)[C@@H]1CCCN1C(=O)[C@@H](NC(=O)[C@H](C)NC)C1CCCCC1)C1CCCCC1`
136

Repeat with `CC[C@@H](C(=O)[C@@H](C)[C@@H](O)[C@H](C)[C@@H]1O[C@@H]([C@@H](CC)C(=O)O)CC[C@@H]1C)[C@H]1O[C@]2(C=C[C@@H](O)[C@]3(CC[C@@](C)([C@H]4CC[C@](O)(CC)[C@H](C)O4)O3)O2)[C@H](C)C[C@@H]1C`
44.7

Cool, now CC(=O)OCC1=C(C(=O)O)N2C(=O)[C@@H](NC(=O)CCCC(N)C(=O)O)C2SC1 (some centres not stated)
104

----------
- System: HepG2
- measurement notes: cell viability relative to DMSO; higher = less toxic
- condition description: 72 h; 10000 nM
Please go through the items and note down their cell viability.
Return type: number; implicit unit %.

Quick one: cell viability of O=C(O)[C@@H]1C[C@@H](O)CN1 [L-hydroxyproline] ?
90.8

Again, but for `Cc1ccc([N+](=O)[O-])cc1S(=O)(=O)N(C)/N=C/c1cnc2ccc(Br)cn12`
10.6

Continue with `Cc1ncc(OC[C@@]2(c3cccc(F)c3)C[C@H]2C(=O)Nc2ccc(F)cn2)c(C)n1`
97.3

Ok, now `c1ccc2nc(C3=NCCN3)ccc2c1`
87.2

Then this compound: `O=c1cc(-c2cccc3c2Sc2ccccc2S3)oc(N2CCOCC2)c1`
85.9

Please answer likewise for `O=C(O)c1cc(O)c(O)c(O)c1`
79.6

Likewise for `CNC(=O)c1ccc(Nc2ncc(C(F)(F)F)c(NCc3nccnc3N(C)S(C)(=O)=O)n2)cc1` ?
68.1

What would you report for `O=C1NC(=O)/C(=C/c2ccc(-c3ccc(F)cc3O)o2)S1` ?
106

Proceed to `C#C[C@]1(O)CC[C@H]2[C@@H]3CCC4=CC(=O)CC[C@@H]4[C@H]3C(=C)C[C@@]21CC`
104
